Property: melting point; scope: individual compounds

Solved entries (count: 3):
Cc1cc(C)cc(NCc2cc(=O)oc3ccc(C)cc23)c1 [10f] :: 179 to 180 °C
O=c1cc(CNc2ccc(Cl)cc2)c2cc(Cl)ccc2o1 [9c] :: 205 to 207 °C
Cc1ccc2oc(=O)cc(CN3CCC(c4ccccc4)CC3)c2c1 [10n] :: 106 to 107 °C

Now let's try a different one.
Read the entry CN(Cc1cc(=O)oc2ccc(Cl)cc12)c1ccccc1 [9g] and write its reported melting point.
200 to 201 °C

* * *

Property: melting point; scope: individual molecules

Solved entries (count: 2):
CCc1ccc2oc(=O)cc(CN3CCOCC3)c2c1 [11k] :: 110 to 113 °C
CCc1ccc2oc(=O)cc(CN3CCC(c4ccccc4)CC3)c2c1 [11n] :: 118 to 120 °C

Now let's try a different one.
Read the entry "O=c1cc(CN2CCCCC2)c2cc(Cl)ccc2o1" and write its reported melting point.
181 to 182 °C
